Listed below: kon values for each entry.
Biological target: T1, hCD27-muFc (human; mouse, UniProt P26842 20-192)
T1 construct: range 1-192; Secreted from HEK293, Protein A purified; not shown: mouse IgG1-Fc (muFc), residues 98 to 324 of UniProt P01868
T1 sequence (looked up): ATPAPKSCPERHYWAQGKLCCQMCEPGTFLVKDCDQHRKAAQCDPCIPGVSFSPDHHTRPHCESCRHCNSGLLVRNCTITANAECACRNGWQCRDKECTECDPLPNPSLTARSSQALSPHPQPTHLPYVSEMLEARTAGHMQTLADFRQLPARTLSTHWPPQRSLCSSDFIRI
Experiment: BLI (Octet K2), antibody on Protein A biosensor, hCD27-muFc in solution
Give the value in M⁻¹ s⁻¹ but do not write M⁻¹ s⁻¹ after it.

Past entries and their recorded results:
[in] Which kon is reported for this binder? 16647 (antibody, human IgG1, V domains shown, not shown: a dimerising Fc or GST, Humanized m2F11, human IgG1 / kappa) VH: QVELRESGGGLVKPGGSLRLSCAASGFTFSSYAMSWVRQMPGKGLEWVAIIGDGDTYTYYPDSVKGRFTISRDNSKNRLYLQMNSLKSEDTAMYYCVRTRGGPFDYWGQGTTLTVSS VL: EILLTQSPAFMSATPGEKVTITCSASSSVGSMHWYQQKSGQSPRRLIYDTSKLASGVPDRFSGSGSGTDYTLTISSLEAEDAATYYCQQWSSIPPTFGAGTTLELK
[out] 71500

[in] Which kon is reported for this binder? d12996 (antibody, human IgG1, V domains shown, not shown: a dimerising Fc or GST, Humanized m2F11, human IgG1 / kappa) VH: EVHLQESGGGLVKPGGSLRLSCAASGFTFSSYAMSWVRQEPEKNLEWVAIIGDGDTYTYYPDSVKGRFTISRDNSKNRLYLQMNDLKSEDTAMYYCVRTRGGPFDYWGQGTTLTVSS VL: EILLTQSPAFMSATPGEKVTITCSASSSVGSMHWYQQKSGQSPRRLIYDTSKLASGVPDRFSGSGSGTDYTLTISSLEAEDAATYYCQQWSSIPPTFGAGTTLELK
[out] 96200

Further cases:
[in] Which kon is reported for this binder? 9419 (antibody, human IgG1, V domains shown, not shown: a dimerising Fc or GST, Humanized m2F11, human IgG1 / kappa) VH: EVHLQESGGALVKPGGSLRLSCAASGFTFSSYAMSWVRQAPEKGLEWVAIIGDGDTYTYYPDSVKGRFTISRDNAKNTLYLQMSNLKSEDTAMYYCVRTRGGPFDYWGQGTTLTVSS VL: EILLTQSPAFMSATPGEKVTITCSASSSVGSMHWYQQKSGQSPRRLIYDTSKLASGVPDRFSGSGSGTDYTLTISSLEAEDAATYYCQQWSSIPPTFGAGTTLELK
[out] 105000
